# System: carageenan-induced edema
# TEST_NAME: Carrageenan-induced rat paw edema test (anti-inflammatory activity)
# Format: in vivo, Sprague-Dawley rats
# APPLIED_CONDITIONS: rat paw edema, 50 mg/kg, reading 3 hours after carrageenan; [(Control−Test)/Control]×100%
Collected % Protection P values appear next to each entry.
Report the value in % with no unit label.

SMILES_STRING	TESTED_SYSTEM	% Protection P (%)
COc1c(C)cnc(-c2sc(Nc3ccc(Cl)cc3)nc2N)c1C	carageenan-induced edema	32
COc1ccccc1-n1c(-c2cc(-c3ccncc3)c(N3CCOCC3)s2)nc2ccccc2c1=O	carageenan-induced edema	42
CC(=O)Nc1ccc(-c2cc(-c3nc4ccccc4c(=O)n3-c3ccccc3)sc2N2CCOCC2)cc1	carageenan-induced edema	28
Cc1ccc(C(=O)c2sc(N3CCN(C(=O)c4ccco4)CC3)nc2-c2ccccc2)cc1	carageenan-induced edema	53
COc1ccc(Nc2nc(NC(=O)Nc3ccc(F)cc3)c(C(=O)c3ccc(S(C)(=O)=O)cc3)s2)cc1	carageenan-induced edema	66.78
CC(=O)Nc1ccc(-c2cc(C(=O)c3cc(OCC(F)(F)F)c(C)cn3)sc2N2CCOCC2)cc1	carageenan-induced edema	30
O=c1c2ccccc2nc(-c2cc(-c3ccncc3)c(N3CCOCC3)s2)n1-c1ccccc1	carageenan-induced edema	65

Now consider a different compound.
Hello, please tell me recorded % Protection P for this one: `CC(=O)Nc1ccc(-c2cc(-c3nc4ccccc4c(=O)n3-c3cccc(C)c3)sc2N2CCOCC2)cc1`
52

---

Collected Viability (MTT) % Decrease HaCaT values appear next to each entry.
# Tested on: cell lines from the skin, one tumorigenic and one non-tumorigenic
# TEST_NAME: MTT viability in skin cell line pair, tumorigenic and non-tumorigenic
# Assay type: cell-based
# Description: Additional compounds have also been tested for their ability to inhibit both TNF-α-induced NF-κB—expression and PMA-induced AP-1 expression. In both tests, the compound was added for 1 h, then the appropriate inducer was added, and luciferase activity was monitored 24 h later. […] Following treatment, the media from the VSMC and HUVEC incubations were removed, and the amount of lactate dehydrogenase (LDH) released into the medium was determined with a commercial kit. […]
Report the value in % with no unit label.

Look over these answered cases.
COMPOUND	UNIT_SYMBOL	Viability (MTT) % Decrease HaCaT
Cc1nc(Nc2ccc(Cl)cc2)sc1-c1nc2ccccc2c(=O)n1-c1ccccc1Cl [PMCR120]	%	−4
Cc1ccccc1-n1c(-c2cc(-c3ccncc3)c(N3CCOCC3)s2)nc2ccccc2c1=O [PMCR188]	%	0
CNc1nc(C)c(-c2nc3ccccc3c(=O)n2-c2ccccc2C)s1 [PMCR19]	%	6
O=c1c2ccccc2nc(-c2cc(-c3ccncc3)c(N3CCOCC3)s2)n1-c1ccc(Cl)cc1 [PMCR236]	%	6
COc1ccccc1-n1c(-c2cc(-c3ccncc3)c(N3CCOCC3)s2)nc2ccccc2c1=O [PMCR206]	%	11

Hello, please tell me recorded Viability (MTT) % Decrease HaCaT for this one: COc1ccccc1-n1c(-c2cc(-c3ccc(S(C)(=O)=O)cc3)c(N3CCOCC3)s2)nc2ccccc2c1=O [PMCR204]
−8

Hello, please tell me recorded Viability (MTT) % Decrease HaCaT for this one: Cc1ccccc1-n1c(-c2sc(Nc3ccccc3)nc2C)nc2ccccc2c1=O [PMCR20]
6

Hello, please tell me recorded Viability (MTT) % Decrease HaCaT for this one: CCOC(=O)Nc1nc(-c2ccccc2)c(-c2nc3ccccc3c(=O)n2-c2ccccc2C)s1 [PMCR25]
−5

Hello, please tell me recorded Viability (MTT) % Decrease HaCaT for this one: O=c1c2ccccc2nc(-c2cc(-c3ccncc3)c(N3CCOCC3)s2)n1-c1ccccc1Cl [PMCR224]
−4

Hello, please tell me recorded Viability (MTT) % Decrease HaCaT for this one: CC(=O)c1ccc(-n2c(-c3cc(-c4ccncc4)c(N4CCOCC4)s3)nc3ccccc3c2=O)cc1 [PMCR242]
−28

Hello, please tell me recorded Viability (MTT) % Decrease HaCaT for this one: Cc1cccc(-n2c(-c3sc(NC(=O)c4ccccc4)nc3-c3ccccc3)nc3ccccc3c2=O)c1 [PMCR45]
19

Hello, please tell me recorded Viability (MTT) % Decrease HaCaT for this one: COC(=O)Nc1nc(-c2ccccc2)c(-c2nc3ccccc3c(=O)n2-c2ccccc2Cl)s1 [PMCR122]
6

Hello, please tell me recorded Viability (MTT) % Decrease HaCaT for this one: COc1ccc(-n2c(-c3cc(-c4ccc(S(C)(=O)=O)cc4)c(N4CCOCC4)s3)nc3ccccc3c2=O)cc1 [PMCR216]
−21
